Documented growth across a set of molecules
# Tested on: CAKI-1 renal
# experiment.notes: NCI-60 one-dose screen, 48 h (100 = growth as untreated, 0 = no growth, -100 = all killed)
# experimental.setup: 10 µM unless noted
# Description: Growth inhibition of the CAKI-1 human tumor cell line is measured as a screen for anti-cancer activity. Cells are grown in 96 well plates and exposed to the test compound for 48 hours. Compounds are tested at a single concentration, which is 10^-5 M for most compounds. The reported endpoint is percent growth (GI% or GIPRCNT), where numbers from 0 - 100% represent growth inhibition, and numbers from -100% - 0 represent cell death. For example, a value of 40 represents 60% growth inhibition. […]
About 83,000 compounds went through this panel and 20% of them were active in at least one assay; those are over-represented in the sample as a whole.
Numeric only. Scale: %

smiles.input: CC(=O)/C(N=Nc1ccc(S(=O)(=O)c2ccc(N=N/C(C(C)=O)=C(/C)O)cc2)cc1)=C(\C)O
study.target: CAKI-1 renal
growth (%): 100

Return reported growth; argument: "CCn1c2ccc(N(C)C)cc2c2cc(N(C)C)ccc21"
98.4

Now try "CCOC(=O)CN1CCC(C(=O)OCC)CC1" .
116

Thanks! And "CCCC(=O)OCC(COC(=O)CCC)OC(=O)CCC" ?
94.8

Check "CC(=O)Nc1cscc1NC(C)=O" too.
73.1

Could you do the same for "CCOc1ccc(/C=C\C(=O)O)cc1" , please?
113

---

# Tested on: NCI-H522 lung
# experiment.notes: NCI-60 one-dose screen, 48 h (100 = growth as untreated, 0 = no growth, -100 = all killed)
# experimental.setup: 10 µM unless noted
This is part of a sample that, as a whole, favours compounds with a hit. Of some 83,000 tested, about 20% had one in any assay.
Some compounds, each annotated with its measured growth.
Numeric only. Scale: %

compound: N#Cc1ccc(/C=C/C(=O)c2ccccc2)cc1
growth, %: 83.1
--
compound: COCCCNC1=C(C#N)C(=O)NC(c2cccs2)S1 (configuration not stated)
growth, %: 127
--
compound: O=P(O)(O)OC1C(OP(=O)(O)O)C(OP(=O)(O)O)C(OP(=O)(O)O)C(OP(=O)(O)O)C1OP(=O)(O)O.[Cu+2] (configuration not stated)
growth, %: 101
--
compound: CC(=O)c1cccc(OC(=O)c2ccccc2)c1
growth, %: 84.7
--
compound: CCN(CC)C(=S)SCCO
growth, %: 95.5
--
compound: Cc1nc(Nc2ccc(Cl)cc2)c2cnn(-c3ccccc3)c2n1
growth, %: 105
--
compound: ON=C(C1CCCCC1)C1CCCCC1
growth, %: 107
--
compound: Nc1c(S(=O)(=O)O)cc(Br)c2c1C(=O)c1ccccc1C2=O
growth, %: 83
--
compound: COC(=O)CCOc1ccccc1
growth, %: 87.9
--
compound: O=C(NC(CSSCC(NC(=O)OCc1ccccc1)C(=O)O)C(=O)O)OCc1ccccc1 (configuration not stated)
growth, %: 70.3

# growth lookup, item "O=COCCCc1ccccc1"
80.5

And for "COc1ccc(CCNC(=S)NN)cc1OC" ?
102

---

# Test system: SK-MEL-2 melanoma
# experiment.notes: NCI-60 one-dose screen, 48 h
# experimental.setup: 10 µM unless noted
The panel holds about 83,000 compounds, 20% with a hit somewhere; the sample as a whole holds those more often. The source made the active and inactive calls. Rule for the calls: active = growth percent below 10; inactive = the rest.
Thanks in advance; please answer with one of these: 1 (yes) (active), 0 (no) (inactive)

molecule: COC(=O)C(Cc1cn(C(C)=O)c2ccccc12)P(=O)(OC)OC (configuration not stated)
study.target: SK-MEL-2 melanoma
group: 0 (no)
--
molecule: COc1cc(C2c3cc4c(cc3C(OC(=O)C[n+]3ccccc3)C3COC(=O)C23)OCO4)cc(OC)c1OC (configuration not stated)
study.target: SK-MEL-2 melanoma
group: 0 (no)
--
molecule: CSc1nc(N)c(N)c(N)n1
study.target: SK-MEL-2 melanoma
group: 0 (no)
--
molecule: N#Cc1ccc(/C=C/C(=O)c2ccccc2)cc1
study.target: SK-MEL-2 melanoma
group: 0 (no)
--
molecule: CS(=O)(=O)c1nsc(N)n1
study.target: SK-MEL-2 melanoma
group: 0 (no)
--
molecule: O=C(O)Cc1cc(=O)[nH]n(-c2ccccc2)c1=O
study.target: SK-MEL-2 melanoma
group: 0 (no)

Recorded call for "OCc1cccc(F)c1" ?
1 (yes)

And then "CCOC(=O)c1csc(N)n1" , what is it?
0 (no)

Okay, and COc1cc2oc3cc(=O)cc4oc(-c5ccccc5)cc(c2c2c1CCC(c1ccccc1)O2)c43 (configuration not stated) ?
0 (no)

---

growth listing for selected molecules.
# System: M14 melanoma
# experiment.notes: NCI-60 one-dose screen, 48 h (100 = growth as untreated, 0 = no growth, -100 = all killed)
# experimental.setup: 10 µM unless noted
Compounds without any hit were thinned out: in the full panel of roughly 83,000, 20% have a hit. Active and inactive are the calls of the source. Rule for the calls: active = growth percent below 10; inactive = the rest.

Suppose we examine the molecule "COc1ccc(CCNC(=S)NN)cc1OC" ; what growth value has been reported?
104% (inactive)

And the next one, "COC(=O)c1nc(=S)[nH]c(C(=O)OC)c1C(=O)c1ccccc1" ?
113% (inactive)

---

Parameter growth: see the listing below.
# Tested on: TK-10 renal
# experiment.notes: NCI-60 one-dose screen, 48 h (100 = growth as untreated, 0 = no growth, -100 = all killed)
# experimental.setup: 10 µM unless noted
# Method: Growth inhibition of the TK-10 human tumor cell line is measured as a screen for anti-cancer activity. Cells are grown in 96 well plates and exposed to the test compound for 48 hours. Compounds are tested at a single concentration, which is 10^-5 M for most compounds. The reported endpoint is percent growth (GI% or GIPRCNT), where numbers from 0 - 100% represent growth inhibition, and numbers from -100% - 0 represent cell death. For example, a value of 40 represents 60% growth inhibition. […]
This is part of a sample that, as a whole, favours compounds with a hit. Of some 83,000 tested, about 20% had one in any assay. Active and inactive are the calls of the source. The calls were made as follows: active = growth percent below 10; inactive = the rest.

molecule: N#Cc1c(N)nc2c(c(-c3ccc(Cl)cc3)nn2-c2ccccc2)c1C#N
study.target: TK-10 renal
reported.metric: growth
observed.result: 128% [100 µM] (inactive)

What is its growth for TK-10 renal? Entry: "Cc1cc(Cl)nc(Nc2ccccc2)n1"
94.4% (inactive)

Also "COC(=O)c1ccccc1Cl" , if possible.
97.1% (inactive)

Also need "CC(C)(C)OC(=O)NCCc1ccc(N)cc1" , thanks.
92.7% (inactive)

Ok, now "CCCCCCCCCCCCCCCCC(=O)O"
86.6% (inactive)

Let us now turn to "N=c1sc2ccccc2n1CC(=O)O"
96.9% (inactive)

Likewise for "OCc1cccc(F)c1" ?
96.5% (inactive)

Then this molecule: "COc1ccc(COC=O)cc1"
103% (inactive)

Moving on to "CCCCC/C(C)=N\NC(N)=S"
100% (inactive)

---

# Tested on: SW-620 colon
# experiment.notes: NCI-60 one-dose screen, 48 h (100 = growth as untreated, 0 = no growth, -100 = all killed)
# experimental.setup: 10 µM unless noted
Compounds without any hit were thinned out: in the full panel of roughly 83,000, 20% have a hit.
reported.metric: growth (%)
# value in %; strip the unit string

// returns reported growth for input "Cc1c(Cl)c(C)c(Cc2c(C)c(Cl)c(C)c(Cl)c2O)c(O)c1Cl"
17.1

# iterate: "Cc1cnc(N)s1"
103

Note, next up: "O=[N+]([O-])c1ccc(N2CCN=N2)cc1"
81.8

---

Each item that follows carries a reported growth.
# Tested on: T-47D breast
# experiment.notes: NCI-60 one-dose screen, 48 h (100 = growth as untreated, 0 = no growth, -100 = all killed)
# experimental.setup: 10 µM unless noted
About 83,000 compounds went through this panel and 20% of them were active in at least one assay; those are over-represented in the sample as a whole. Active and inactive are the calls of the source. The calls were made as follows: active = growth percent below 10; inactive = the rest.

Here are 5 molecules together with their reported answers.
molecule: COc1ccc(COC=O)cc1
study.target: T-47D breast
growth: 91.2% (inactive)
//
molecule: Cc1cnc(N)s1
study.target: T-47D breast
growth: 90.2% (inactive)
//
molecule: CCCC(=O)Oc1ccc(CC)cc1
study.target: T-47D breast
growth: 90.9% (inactive)
//
molecule: COc1ccc(CCl)c(C)c1OC
study.target: T-47D breast
growth: 102% (inactive)
//
molecule: N#Cc1c(N)nc2c(c(-c3ccc(Cl)cc3)nn2-c2ccccc2)c1C#N
study.target: T-47D breast
growth: 97.4% [100 µM] (inactive)

Fill in the blank: the reported growth of "CN(C=O)c1ccccc1" is ____.
86.7% (inactive)

Lookup "CC(=O)Nc1ccc2oc(=O)ccc2c1"
85.3% (inactive)
